Data provenance: PubChem BioAssay (NCI)

# Tested on: OVCAR-8 ovarian
# protocolText: NCI tumour cell line growth inhibition, 48 h
# GI50 per record follows

compound=COc1cc(/C=C/[N+](=O)[O-])cc(OC)c1OC systemtested="OVCAR-8 ovarian" val="3040 nM"
compound="O=C1CCC(N2C(=O)c3cccc(NCCCC4CCN(CCNC(=O)c5cc6c(o5)C(=O)c5ccccc5C6=O)CC4)c3C2=O)C(=O)N1 (configuration not stated)" systemtested="OVCAR-8 ovarian" val="1410 nM"
compound=Brc1cccc(-c2cc(-c3ccc4nccnc4c3)[nH]n2)c1 systemtested="OVCAR-8 ovarian" val="1390 nM"
compound="Nc1n[nH]c2ccc([C@@H]3Nc4cc5[nH]ncc5cc4[C@H]4C5CCC(C5)[C@@H]34)cc12 (some centres not stated)" systemtested="OVCAR-8 ovarian" val="511 nM"
compound=Cc1c2ccncc2c(C)c2c1c1cc(CO)ccc1n2C systemtested="OVCAR-8 ovarian" val="449 nM"
compound=NNc1c2ccccc2nc2ccccc12 systemtested="OVCAR-8 ovarian" val="5090 nM"

## Task What does the record list as GI50 for CN(c1ccc(C#N)c(Cl)c1)C1CCC(NC(=O)c2ccc(N3CCN(C4CN(c5ccc6c(c5)C(=O)N(C5CCC(=O)NC5=O)C6=O)C4)CC3)cc2)CC1 (configuration not stated) ?
## Result > 100000 nM

## Task Requested field: GI50. Item: CC(=O)O.CC(=O)O.CC(=O)O.CC(=O)O.[Rh].[Rh]
## Result 27600 nM

## Task Given the entry CCN1C(=O)N(CC)C2C1NN=c1s/c(=C\c3ccc[nH]3)c(=O)n12 (configuration not stated) , report its measured GI50.
## Result 850 nM
